- TARGET OR SYSTEM: FIH (Homo sapiens)
- Construct: made in house
- Sequence (Q9NWT6 whole entry): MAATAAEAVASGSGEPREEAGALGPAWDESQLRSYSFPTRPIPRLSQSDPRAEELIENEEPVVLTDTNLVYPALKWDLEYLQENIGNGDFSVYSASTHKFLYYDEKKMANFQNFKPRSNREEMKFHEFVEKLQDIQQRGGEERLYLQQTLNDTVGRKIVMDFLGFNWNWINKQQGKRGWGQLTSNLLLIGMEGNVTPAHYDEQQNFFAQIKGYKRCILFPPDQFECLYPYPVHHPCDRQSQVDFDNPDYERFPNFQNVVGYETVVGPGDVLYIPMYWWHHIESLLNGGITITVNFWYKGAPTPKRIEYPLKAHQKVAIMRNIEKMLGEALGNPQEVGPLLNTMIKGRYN
- ASSAY DETAILS: SPE-MS FIH inhibition assay
- Type: biochemical
- Protocol: Protein production and purification PAGE analysis) according to established procedures. FIH, PHD2, AspH, JMJD5 and KDM4A inhibition assays The in vitro FIH,1, 2 PHD2,1 AspH,38 JMJD536 and KDM4A39 inhibition assays were performed as […] KDM4A). Synthetic peptide substrates were used: HIF-1α C-terminal transactivation domain fragment […]
Binarize IC50 at 1000 nM; below is Y, at or above is N.

# input Lab note: confirm whether the reported IC50 for this compound is below 1000 nM, equality not counting. compound: O=C(O)Cc1csc(=NC(=O)C2CCN(S(=O)(=O)c3cccc(Cl)c3)C2)n1O (stereo not drawn) [compound 34]
# output Y

# input A record lists O=C(O)Cc1cs/c(=N\C(=O)CCNC(=O)c2ccccc2)n1O [compound 17] . Is its IC50 below 1000 nM?
# output N

# input Strictly below 1000 nM in IC50? Cc1s/c(=N\C(=O)CS(=O)(=O)c2ccccc2)n(O)c1CC(=O)O [compound 7]
# output N

# input Field: below-cutoff. Rule: recorded IC50 strictly less than 1000 nM. Subject: O=C(O)Cc1csc(=NC(=O)C2CCN(S(=O)(=O)c3ccc(Oc4ccccc4)cc3)C2)n1O (stereo not drawn) [compound 39]
# output Y

# input Is IC50 strictly under 1000 nM for the entry CC1(C(=O)/N=c2\scc(CC(=O)O)n2O)CN(S(=O)(=O)c2ccccc2)C1 [compound 25] ?
# output N

# input Determine whether this compound shows IC50 lower than 1000 nM (ties excluded): COc1ccc(S(=O)(=O)N2CCC(C(=O)N=c3scc(CC(=O)O)n3O)C2)cc1 (stereo not drawn) [compound 36]
# output Y

# input Lab log: compare recorded IC50 with 1000 nM; is it strictly lower for CC(=O)/N=c1\scc(CC(=O)O)n1O [compound 14] ?
# output N

# input Dear reviewer, please state whether O=C(CS(=O)(=O)c1ccccc1)/N=c1\scc(Cn2ccnn2)n1O [compound 12] has IC50 strictly beneath 1000 nM.
# output N

----------
So I've got a bunch of compounds here, and I need their IC50 values.
- TARGET OR SYSTEM: PHD2 (Homo sapiens, UniProt Q9GZT9)
- Sequence (Q9GZT9 181-426): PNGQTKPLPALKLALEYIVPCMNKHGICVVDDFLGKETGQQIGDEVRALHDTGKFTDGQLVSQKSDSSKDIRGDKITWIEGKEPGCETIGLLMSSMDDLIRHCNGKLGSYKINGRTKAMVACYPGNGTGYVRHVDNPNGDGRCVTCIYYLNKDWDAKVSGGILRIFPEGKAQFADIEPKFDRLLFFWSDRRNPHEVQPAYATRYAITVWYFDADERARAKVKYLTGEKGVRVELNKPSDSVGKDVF
- ASSAY DETAILS: biochemical
Respond numerically; units are µM and should not be typed.

# input Consider the compound O=C(O)Cc1csc(=NC(=O)C2CCN(S(=O)(=O)c3cccs3)C2)n1O (centres unmarked) . State its measured IC50.
# output 11.2

# input Consider the compound O=C(O)Cc1csc(=NC(=O)C2CCN(S(=O)(=O)c3ccc(C(F)(F)F)cc3)C2)n1O (centres unmarked) and give its recorded IC50.
# output 15.2

# input Report IC50 for O=C(O)Cc1csc(=NC(=O)C2CCN(S(=O)(=O)c3ccccc3)C2)n1O (centres unmarked)
# output 12.4

# input # return recorded IC50 for entry O=C(O)Cc1csc(=NC(=O)C2CCN(S(=O)(=O)c3ccccc3Cl)C2)n1O (centres unmarked)
# output 8

----------
- TARGET OR SYSTEM: PHD2 (Homo sapiens, UniProt Q9GZT9)
- ASSAY DETAILS: biochemical
EXPERIMENTAL READOUT: log10 IC50 (log10 of the value in µM)
Form field - Quantity: IC50; Unit: µM; Scale: log10

# input Specify measured log10 IC50 for O=C(O)Cc1cs/c(=N\C(=O)CNS(=O)(=O)c2ccccc2)n1O [compound 19] .
# output 1.19

# input Return value of log10 IC50 for input O=C(O)Cc1csc(=NC(=O)C2CCN(S(=O)(=O)c3ccc(-c4ccccc4)cc3)C2)n1O (stereo not drawn) [compound 38] , no commentary.
# output 0.49

# input Tell us which log10 IC50 value is on record for CC1(C(=O)/N=c2\scc(CC(=O)O)n2O)CN(S(=O)(=O)c2ccccc2)C1 [compound 25]
# output 1.53

# input State its log10 IC50: O=C(O)Cc1cs/c(=N\C(=O)C2CN(S(=O)(=O)c3ccccc3)C2)n1O [compound 24]
# output 0.72

# input Please look at this compound and report its log10 IC50: O=C(O)Cc1csc(=NC(=O)C2CCN(S(=O)(=O)C3CCCC3)C2)n1O (stereo not drawn) [compound 43]
# output 1.00

# input For the compound O=C(O)Cc1cs/c(=N\C(=O)CCNC(=O)c2ccccc2)n1O [compound 17] , give its reported log10 IC50.
# output 0.56

# input Provide measured log10 IC50 value, entry: O=C(O)Cc1cs/c(=N\C(=O)CCS(=O)(=O)c2ccccc2)n1O [compound 15]
# output 0.43

----------
- TARGET OR SYSTEM: KDM4A (Homo sapiens, UniProt O75164)
- Sequence (O75164 1-359): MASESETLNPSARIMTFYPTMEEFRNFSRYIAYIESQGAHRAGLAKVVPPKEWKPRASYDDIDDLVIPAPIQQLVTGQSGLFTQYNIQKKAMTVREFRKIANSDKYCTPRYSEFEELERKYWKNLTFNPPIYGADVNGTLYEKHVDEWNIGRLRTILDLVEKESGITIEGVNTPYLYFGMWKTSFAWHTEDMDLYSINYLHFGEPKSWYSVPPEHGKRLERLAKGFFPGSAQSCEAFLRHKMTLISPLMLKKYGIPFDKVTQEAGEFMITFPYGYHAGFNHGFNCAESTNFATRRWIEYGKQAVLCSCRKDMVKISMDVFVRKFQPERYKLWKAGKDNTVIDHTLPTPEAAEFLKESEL
- ASSAY DETAILS: biochemical
- Format: biochemical
- CONDITION: 0.15 μM KDM4A, 10.0 μM 2OG, 10.0 μM H3 1–15 K9me3; SPE-MS
EXPERIMENTAL READOUT: pIC50
Please express pIC50 as -log10 of the molar concentration.

# input Report measured pIC50; entry is O=C(O)CNC(=O)C(=O)O [NOG, N-oxalylglycine, reference compound]
# output 4.66

----------
Give measured IC50 for each item. Keep answers brief.
- TARGET OR SYSTEM: KDM4A (Homo sapiens, UniProt O75164)
- ASSAY DETAILS: biochemical
- Assay type: biochemical

# input State IC50 on KDM4A (Homo sapiens, UniProt O75164). Entry: O=C(O)Cc1csc(=NC(=O)C2CCN(S(=O)(=O)C3CCCC3)C2)n1O (stereo not drawn) [compound 43]
# output > 100 µM

# input // fetch IC50 for O=C(O)Cc1cs/c(=N\C(=O)CNC(=O)c2ccccc2)n1O [compound 16] ; system: KDM4A (Homo sapiens, UniProt O75164)
# output > 100 µM

# input Report value: IC50, system: KDM4A (Homo sapiens, UniProt O75164), compound: O=C(O)Cc1cs/c(=N\C(=O)CCNS(=O)(=O)c2ccccc2)n1O [compound 20]
# output > 100 µM

# input # return IC50 of O=C(O)Cc1csc(=NC(=O)C2CCN(S(=O)(=O)Cc3ccccc3)C2)n1O (stereo not drawn) [compound 42] (system: KDM4A (Homo sapiens, UniProt O75164))
# output > 100 µM

# input Recall the reported IC50 of O=C(O)Cc1cs/c(=N\C(=O)C2CCCN2S(=O)(=O)c2ccccc2)n1O (stereo not drawn) [compound 28] on KDM4A (Homo sapiens, UniProt O75164) and write it down.
# output > 100 µM

# input Please report IC50 with KDM4A (Homo sapiens, UniProt O75164) for item CCOC(=O)Cc1cs/c(=N\C(=O)CS(=O)(=O)c2ccccc2)n1O [compound 3] .
# output > 100 µM

# input System KDM4A (Homo sapiens, UniProt O75164). Read-out IC50. Item O=C(O)C(=O)N[C@H](Cc1ccccc1)C(=O)O [NOFD, N-oxalyl-D-phenylalanine, reference compound] . Report value.
# output 14.1 µM

# input # assay system KDM4A (Homo sapiens, UniProt O75164): give IC50 of O=C(O)Cc1cs/c(=N\C(=O)CNc2ccccc2)n1O [compound 23]
# output 71.6 µM

# input Fill in IC50 for O=C(O)Cc1cs/c(=N\C(=O)CS(=O)(=O)c2ccccc2)n1O [compound 4] tested with KDM4A (Homo sapiens, UniProt O75164).
# output > 100 µM

# input Retrieve IC50 on KDM4A (Homo sapiens, UniProt O75164); query O=C(O)Cc1cs/c(=N\C(=O)CCNC(=O)c2ccccc2)n1O [compound 17]
# output > 100 µM

# input Find IC50 for O=C(CS(=O)(=O)c1ccccc1)/N=c1\sccn1O [compound 8] on KDM4A (Homo sapiens, UniProt O75164) and write it down.
# output > 100 µM

# input Recall the reported IC50 of O=C(O)Cc1cs/c(=N\C(=O)CS(=O)(=O)Nc2ccccc2)n1O [compound 21] on KDM4A (Homo sapiens, UniProt O75164) and write it down.
# output > 100 µM

# input Give reported IC50 for O=C(O)Cc1csc(=NC(=O)C2CCN(S(=O)(=O)c3ccc(C(F)(F)F)cc3)C2)n1O (stereo not drawn) [compound 37] (KDM4A (Homo sapiens, UniProt O75164))
# output > 100 µM

# input Report IC50 under test system KDM4A (Homo sapiens, UniProt O75164) for O=C(O)Cc1csc(=NC(=O)C2CCN(S(=O)(=O)c3ccccc3Cl)C2)n1O (stereo not drawn) [compound 33] .
# output > 100 µM

# input For KDM4A (Homo sapiens, UniProt O75164), give the measured IC50 of the entry O=C(O)Cc1cs/c(=N\C(=O)CS(=O)(=O)Cc2ccc3ccccc3c2)n1O [BNS, reference compound]
# output 67.4 µM

# input Report IC50 on KDM4A (Homo sapiens, UniProt O75164) for this entry: CNC(=O)Cc1cs/c(=N\C(=O)CS(=O)(=O)c2ccccc2)n1O [compound 10]
# output > 100 µM

# input Specify IC50 for COC(=O)Cc1cs/c(=N\C(=O)CS(=O)(=O)c2ccccc2)n1O [compound 9] , system KDM4A (Homo sapiens, UniProt O75164).
# output > 100 µM

# input Recall the reported IC50 of O=C(O)Cc1csc(=NC(=O)C2CCN(S(=O)(=O)c3ccc(Cl)cc3)C2)n1O (stereo not drawn) [compound 35] on KDM4A (Homo sapiens, UniProt O75164) and write it down.
# output > 100 µM
